pKi listing for selected compounds.
Biological target: hNPY1R (Homo sapiens (Human), UniProt P25929)
Sequence (P25929 whole entry): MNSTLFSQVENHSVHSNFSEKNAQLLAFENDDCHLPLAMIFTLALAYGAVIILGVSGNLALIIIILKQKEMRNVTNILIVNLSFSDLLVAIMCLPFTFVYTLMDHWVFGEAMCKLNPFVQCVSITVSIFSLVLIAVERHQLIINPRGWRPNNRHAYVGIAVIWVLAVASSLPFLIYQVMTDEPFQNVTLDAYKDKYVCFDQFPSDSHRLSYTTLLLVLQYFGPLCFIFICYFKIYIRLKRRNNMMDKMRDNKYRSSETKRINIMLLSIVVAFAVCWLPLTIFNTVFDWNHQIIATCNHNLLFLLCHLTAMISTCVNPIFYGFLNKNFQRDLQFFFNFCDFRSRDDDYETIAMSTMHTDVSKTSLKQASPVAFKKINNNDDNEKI
Experiment: NPY1R binding assay (SK-N-MC membrane, [125I]-Peptide YY competition);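 further: bound radioligand separated by filtration over GF/C filter plates and counted, Ki obtained by non-linear regression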
Conditions: crude SK-N-MC membranes endogenously expressing NPY1R; [125I]-Peptide YY (human) 0.05 nM; 120 min at room temperature; read-out: hNPY1R binding Ki
pKi: −log10 of the molar value. Numbered stars: 1 amine (or outer) side, 2 acyl side, 3 side chain; on linkers, the order of the positions; unused ones are H or OH. Square brackets hold non-standard residues; d marks the D form. Peptide text beside a SMILES is read from it. * marks the point of attachment. dArg(Nω-CONH(CH2)2NHCOEt) = CCC(=O)NCCNC(=O)/N=C(/N)NCCC[C@@H](N)C(=O)O; DOTA = O=C(O)CN1CCN(CC(=O)O)CCN(CC(=O)*)CCN(CC(=O)O)CC1; X1 = O=C([C@H](c1ccc(OCCCN[*:1])cc1)N1Cc2ccccc2C1)[*:2]; NH(2,6-F2-4-OH-benzyl) = Oc1cc(F)c(CN*)c(F)c1; βAla = NCCC(=O)O

Compound: CC(C)(C)C1CCN(C(C(=O)N[C@H](CCCNC(=N)N)C(=O)NCc2ccc(O)cc2)c2ccccc2)CC1 (stereo partly shown)
pKi: 7.00 to 8.00
//
Compound: CCC(=O)NCCNC(=O)/N=C(/N)NCCC[C@@H](NC(=O)[C@H](c1ccc(OCCCNC(=O)[C@H]2CC[C@H](CNC(=O)CN3CCN(CC(=O)O)CCN(CC(=O)O)CCN(CC(=O)O)CC3)CC2)cc1)N1Cc2ccccc2C1)C(=O)NCc1ccc(O)cc1
pKi: > 8.00
//
Compound: CCC(=O)NCCNC(=O)/N=C(/N)NCCC[C@@H](NC(=O)[C@H](c1ccc(OCCCNC2CCN(C(=O)CCCCCNC(=O)CN3CCN(CC(=O)O)CCN(CC(=O)O)CCN(CC(=O)O)CC3)CC2)cc1)N1Cc2ccccc2C1)C(=O)NCc1c(F)cc(O)cc1F
pKi: > 8.00
//
Compound: CCC(=O)NCCNC(=O)/N=C(/N)NCCC[C@@H](NC(=O)[C@@H](c1ccccc1)N1Cc2ccccc2C1)C(=O)NCc1ccc(O)cc1 [60B]
pKi: 7.00 to 8.00
//
Compound: CCNC(=O)/N=C(/N)NCCC[C@@H](NC(=O)C(c1ccccc1)N1CCC(C(C)(C)C)CC1)C(=O)NCc1ccc(O)cc1 (stereo partly shown)
pKi: > 8.00
//
Compound: CCC(=O)NCCNC(=O)/N=C(/N)NCCC[C@@H](NC(=O)[C@H](c1cccc(NCCCNC(=O)CCOCCOCCOCCOCCOCCOCCNC(=O)CN2CCN(CC(=O)O)CCN(CC(=O)O)CCN(CC(=O)O)CC2)c1)N1Cc2ccccc2C1)C(=O)NCc1ccc(O)cc1
pKi: > 8.00
//
Compound: CCC(=O)NCCNC(=O)/N=C(/N)NCCC[C@@H](NC(=O)[C@H](c1ccc(OCCCNC(=O)C[C@H]2NC(=O)[C@@H](CCCNC(=O)CN3CCN(CC(=O)O)CCN(CC(=O)O)CCN(CC(=O)O)CC3)NC2=O)cc1)N1Cc2ccccc2C1)C(=O)NCc1c(F)cc(O)cc1F
pKi: > 8.00
//
Compound: CCC(=O)NCCNC(=O)/N=C(/N)NCCC[C@@H](NC(=O)[C@H](c1ccccc1)N1Cc2cccc(NCCCNC(=O)C[C@H](O)C[C@H](O)CCNC(=O)CN3CCN(CC(=O)O)CCN(CC(=O)O)CCN(CC(=O)O)CC3)c2C1)C(=O)NCc1c(F)cc(O)cc1F
pKi: > 8.00
//
Compound: CCC(=O)NCCNC(=O)/N=C(/N)NCCC[C@@H](NC(=O)C(c1cccc(NC(=O)CCCNC(=O)[C@@H](CO)NC(=O)CCNC(=O)CN2CCN(CC(=O)O)CCN(CC(=O)O)CCN(CC(=O)O)CC2)c1)N1Cc2ccccc2C1)C(=O)NCc1c(F)cc(O)cc1F (single isomer, unassigned) [32A]
pKi: > 8.00
//
Compound: CCNC(=O)/N=C(/N)NCCC[C@@H](NC(=O)C(c1ccccc1)N1CCC(C(C)(C)C)CC1)C(=O)NCc1c(F)cc(O)cc1F (stereo partly shown)
pKi: > 8.00
//
Compound: CCC(=O)NCCNC(=O)/N=C(/N)NCCC[C@@H](NC(=O)[C@H](c1ccc(OCCCCNC(=O)CCCCCNC(=O)CN2CCN(CC(=O)O)CCN(CC(=O)O)CCN(CC(=O)O)CC2)cc1)N1Cc2ccccc2C1)C(=O)NCc1ccc(O)cc1
pKi: > 8.00
//
Compound: CCC(=O)NCCNC(=O)/N=C(/N)NCCC[C@@H](NC(=O)[C@H](c1cccc(NCCCNC(=O)CCCCCNC(=O)CN2CCN(CC(=O)O)CCN(CC(=O)O)CCN(CC(=O)O)CC2)c1)N1Cc2ccccc2C1)C(=O)NCc1ccc(O)cc1
pKi: > 8.00
//
Compound: CCC(=O)NCCNC(=O)/N=C(/N)NCCC[C@@H](NC(=O)[C@H](c1ccccc1)N1Cc2cccc(NCCCNC(=O)CCC(=O)NCCNC(=O)CN3CCN(CC(=O)O)CCN(CC(=O)O)CCN(CC(=O)O)CC3)c2C1)C(=O)NCc1c(F)cc(O)cc1F
pKi: > 8.00
//
Compound: CCC(=O)NCCNC(=O)/N=C(/N)NCCC[C@@H](NC(=O)[C@H](c1ccc(CCCOCCOCCNC(=O)CN2CCN(CC(=O)O)CCN(CC(=O)O)CCN(CC(=O)O)CC2)cc1)N1Cc2ccccc2C1)C(=O)NCc1c(F)cc(O)cc1F (single isomer, unassigned)
pKi: > 8.00
//
Compound: CCNC(=O)/N=C(/N)NCCC[C@@H](NC(=O)[C@H](c1cccc(NCCCNC(=O)[C@H](N)CCCCNC(=O)CN2CCN(CC(=O)O)CCN(CC(=O)O)CCN(CC(=O)O)CC2)c1)N1Cc2ccccc2C1)C(=O)NCc1c(F)cc(O)cc1F
pKi: > 8.00
//
Compound: CCC(=O)NCCNC(=O)/N=C(/N)NCCC[C@@H](NC(=O)[C@H](c1ccc(OCCCNC(=O)[C@@H](CO)NC(=O)[C@@H](CO)NC(=O)[C@@H](CO)NC(=O)CCNC(=O)CN2CCN(CC(=O)O)CCN(CC(=O)O)CCN(CC(=O)O)CC2)cc1)N1Cc2ccccc2C1)C(=O)NCc1c(F)cc(O)cc1F [compound 54] ({DOTA-βAla}-[dS][dS][dS][X1][dArg(Nω-CONH(CH2)2NHCOEt)]-{NH(2,6-F2-4-OH-benzyl)})
pKi: > 8.00
